assay: Half life in CD-1 mouse plasma at 0.5 ug/uL by RP-HPLC analysis; format: ADME, cell-free
Peptide text beside a SMILES is read from it. * marks the point of attachment. NH(4-amidinobenzyl) = N=C(N)c1ccc(CN*)cc1; X2 = N=C(N)NCCCN(CC(N)=O)N*
Class Met: half-life at 0.5 ug/uL at least 7 h. Class Not met: half-life at 0.5 ug/uL below 7 h.

1) CC(=O)N[C@H](CC(C)C)C(=O)N[C@@H](CC(C)C)C(=O)N[C@@H](CC(C)C)C(=O)N[C@@H](CC(C)C)C(=O)N[C@@H](CCCN=C(N)N)C(=O)N[C@H](C(=O)N[C@@H](CCCCN)C(=O)N[C@@H](CCCN=C(N)N)C(N)=O)C(C)C | Met
2) CC(=O)N[C@@H](CC(C)C)C(=O)N[C@@H](CC(C)C)C(=O)N[C@@H](CC(C)C)C(=O)N[C@@H](CC(C)C)C(=O)N[C@@H](CCCNC(=N)N)C(=O)N[C@H](C(=O)N[C@@H](CCCCN)C(=O)NN(CCCNC(=N)N)CC(N)=O)C(C)C (Ac-LLLLRVK-X2) | Not met
3) CC(=O)N[C@@H](CC(C)C)C(=O)N[C@@H](CC(C)C)C(=O)N[C@@H](CC(C)C)C(=O)N[C@@H](CC(C)C)C(=O)N[C@@H](CCCNC(=N)N)C(=O)N[C@H](C(=O)N[C@@H](CCCCN)C(=O)N[C@@H](CCCNC(=N)N)C(N)=O)C(C)C | Not met
4) CC(=O)N[C@@H](CC(C)C)C(=O)N[C@@H](CC(C)C)C(=O)N[C@@H](CC(C)C)C(=O)N[C@@H](CC(C)C)C(=O)N[C@@H](CCCN=C(N)N)C(=O)N[C@H](C(=O)N[C@@H](CCCCN)C(=O)NCc1ccc(C(=N)N)cc1)C(C)C (Ac-LLLLRVK-{NH(4-amidinobenzyl)}) | Met
